molecular target: T1, KAP1 RBCC (S33-K434), purified (human, UniProt Q13263 33-434); experiment: co-IP; purified SMARCAD1 fragments (CUE1,2, CUE1) and KAP1 RBCC, 9.6μg of each in a 240μL binding reaction, 1 hour at 4°C; immunoprecipitated with anti-FLAG M2 affinity gel for 3 hours at 4°C; conditions: both partners purified
T1 construct: KAP1 (TRIM28), human, residues S33-K434, RBCC domain; also called KAP1 S33-K434; Fragment 1; source: E. coli BL-21 CodonPlus (DE3)-RP, purified (Ni-NTA, Mono Q)
T1 sequence (Q13263 33-434): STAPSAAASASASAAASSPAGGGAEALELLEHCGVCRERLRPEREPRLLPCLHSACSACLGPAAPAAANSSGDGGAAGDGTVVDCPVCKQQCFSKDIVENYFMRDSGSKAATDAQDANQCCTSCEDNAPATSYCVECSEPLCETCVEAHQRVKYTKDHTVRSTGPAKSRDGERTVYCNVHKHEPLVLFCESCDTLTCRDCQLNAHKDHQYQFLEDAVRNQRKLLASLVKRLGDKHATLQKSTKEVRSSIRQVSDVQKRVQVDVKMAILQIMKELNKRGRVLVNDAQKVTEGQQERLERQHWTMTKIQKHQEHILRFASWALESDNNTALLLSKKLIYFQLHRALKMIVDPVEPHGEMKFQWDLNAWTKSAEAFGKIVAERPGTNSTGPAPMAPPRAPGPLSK
assay.endpoint: binding result

FLAG-tagged SMARCAD1 CUE1,2 fragment E167A (domain or fragment, human, UniProt Q9H4L7 95-347, looked up, SMARCAD1, human, CUE1,2 fragment S95-N347; source: E. coli, purified; construct generated by GenScript) SSDSEDVVSPNCSNTVQEKTFNKDTVIIVSEPSEDEESQGLPTMARRNDDISELEDLSELEDLKDAKLQTLKALFPQRSDNDLLKLIESTSTMDGAIAAALLMFGDAGGGPRKRKLSSSSEPYEEDEFNDDQSIKKTRLDHGEESNESAESSSNWEKQESIVLKLQKEFPNFDKQELREVLKEHEWMYTEALESLKVFAEDQDMQYVSQSEVPNGKEVSSRSQNYPKNATKTKLKQKFSMKAQNGFNKKRKKN ... binds
FLAG-tagged SMARCAD1 CUE1,2 fragment Δ200-230 (domain or fragment, human, UniProt Q9H4L7 95-347, looked up, SMARCAD1, human, CUE1,2 fragment S95-N347 with residues 200-230 deleted; source: E. coli, purified; construct generated by GenScript) SSDSEDVVSPNCSNTVQEKTFNKDTVIIVSEPSEDEESQGLPTMARRNDDISELEDLSELEDLKDAKLQTLKELFPQRSDNDLLKLIESTSTMDGAIAAALLMFGTRLDHGEESNESAESSSNWEKQESIVLKLQKEFPNFDKQELREVLKEHEWMYTEALESLKVFAEDQDMQYVSQSEVPNGKEVSSRSQNYPKNATKTKLKQKFSMKAQNGFNKKRKKN ... binds
FLAG-tagged SMARCAD1 CUE1,2 fragment L195A (domain or fragment, human, UniProt Q9H4L7 95-347, looked up, SMARCAD1, human, CUE1,2 fragment S95-N347; source: E. coli, purified; construct generated by GenScript) SSDSEDVVSPNCSNTVQEKTFNKDTVIIVSEPSEDEESQGLPTMARRNDDISELEDLSELEDLKDAKLQTLKELFPQRSDNDLLKLIESTSTMDGAIAAAALMFGDAGGGPRKRKLSSSSEPYEEDEFNDDQSIKKTRLDHGEESNESAESSSNWEKQESIVLKLQKEFPNFDKQELREVLKEHEWMYTEALESLKVFAEDQDMQYVSQSEVPNGKEVSSRSQNYPKNATKTKLKQKFSMKAQNGFNKKRKKN ... binds
